- Test system: NF-kB
- measurement_protocol: NF-kB binding to DNA, electrophoretic mobility shift assay (EMSA) with Jurkat T cells
- Assay type: cell-based
- condition_details: TNF-a stimulation
Items are presented alongside their recorded NF-kB: Grenzkonzentration, bei der eben noch ein Hemmeffekt im EMSA feststellbar ist.
Write down the numeric answer in µM/Liter and omit the unit.

The examples below pair each entry with its known result.
Prompt line: I would be grateful if you could share the reported NF-kB: Grenzkonzentration, bei der eben noch ein Hemmeffekt im EMSA feststellbar ist for O=C1c2ccccc2-n2c1nc1ccc(Cl)cc1c2=O .
Response line: 50

Prompt line: # iterate: CN(CC(=O)O)c1ccc2c(=O)n3c(nc2c1)C(=O)c1cc(Cl)ccc1-3
Response line: 1

***
Prompt line: I would be grateful if you could share the reported NF-kB: Grenzkonzentration, bei der eben noch ein Hemmeffekt im EMSA feststellbar ist for O=C1c2cc(Cl)ccc2-n2c1nc1ccccc1c2=O .
Response line: 5

Prompt line: # iterate: Nc1ccc2nc3n(c(=O)c2c1)-c1ccc(F)cc1C3=O
Response line: 5

Prompt line: # iterate: CN(CCO)c1ccc2c(=O)n3c(nc2c1)C(=O)c1cc(OC(F)(F)F)ccc1-3
Response line: 5

Prompt line: # iterate: CN1CCN(c2ccc3c(=O)n4c(nc3c2)C(=O)c2cc(F)ccc2-4)CC1
Response line: 10

---

- Test system: NF-kB
- measurement_protocol: NF-kB binding to DNA, electrophoretic mobility shift assay (EMSA) with Jurkat T cells
- Format: cell-based
- condition_details: TNF-a stimulation
Items are presented alongside their recorded NF-kB: Grenzkonzentration, bei der eben noch ein Hemmeffekt im EMSA feststellbar ist.

Prompt line: I would be grateful if you could share the reported NF-kB: Grenzkonzentration, bei der eben noch ein Hemmeffekt im EMSA feststellbar ist for O=C1c2cc(Cl)ccc2-n2c1nc1cc(N3CCOCC3)ccc1c2=O .
Response line: 0,5 µM/Liter

Prompt line: # iterate: CCOC(=O)c1ccc2c(c1)C(=O)c1nc3ccccc3c(=O)n1-2
Response line: >100 µM/Liter

Prompt line: # iterate: Cc1cc(C)c2nc3n(c(=O)c2c1)-c1ccc(F)cc1C3=O
Response line: >100 µM/Liter

***
Prompt line: I would be grateful if you could share the reported NF-kB: Grenzkonzentration, bei der eben noch ein Hemmeffekt im EMSA feststellbar ist for CC1CN(c2cc3c(cc2F)C(=O)c2nc4ccccc4c(=O)n2-3)CCN1C(=O)OC(C)(C)C (centres unmarked) .
Response line: >100 µM/Liter

Prompt line: # iterate: CCCCCCCCS(=O)(=O)c1ccc2c(c1)C(=O)c1nc3c(OC)cccc3c(=O)n1-2
Response line: >100 µM/Liter
